Data credit: ChEMBL document CHEMBL1140446

Target: Endothelin-converting enzyme 1 (Homo sapiens, UniProt P42892)
Sequence (P42892 whole entry): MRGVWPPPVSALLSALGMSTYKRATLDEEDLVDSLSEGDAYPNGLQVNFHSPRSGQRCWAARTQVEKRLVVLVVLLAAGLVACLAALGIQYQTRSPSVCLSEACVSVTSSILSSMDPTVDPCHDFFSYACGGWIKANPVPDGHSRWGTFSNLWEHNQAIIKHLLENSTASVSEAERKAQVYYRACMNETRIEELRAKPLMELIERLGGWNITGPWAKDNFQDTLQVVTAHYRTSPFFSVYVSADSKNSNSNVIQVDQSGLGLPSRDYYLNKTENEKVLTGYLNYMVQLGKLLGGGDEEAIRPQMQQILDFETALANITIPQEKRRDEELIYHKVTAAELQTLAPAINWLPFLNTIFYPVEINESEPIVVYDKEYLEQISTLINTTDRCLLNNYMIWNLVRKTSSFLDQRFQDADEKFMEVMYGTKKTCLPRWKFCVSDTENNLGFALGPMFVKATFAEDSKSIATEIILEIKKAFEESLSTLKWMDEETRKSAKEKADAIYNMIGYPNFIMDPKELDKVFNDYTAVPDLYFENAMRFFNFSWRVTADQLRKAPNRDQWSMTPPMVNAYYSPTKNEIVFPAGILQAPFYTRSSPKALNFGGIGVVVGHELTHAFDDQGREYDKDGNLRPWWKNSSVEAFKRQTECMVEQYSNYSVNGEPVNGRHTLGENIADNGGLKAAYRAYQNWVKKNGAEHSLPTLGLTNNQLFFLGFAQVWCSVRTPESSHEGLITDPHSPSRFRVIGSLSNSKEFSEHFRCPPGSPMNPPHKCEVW

- CHEMICAL_STRING: "COc1ccc2c(c1)CC[C@H]2[C@@H](CS)C(=O)N[C@@H](Cc1c[nH]c2ccccc12)C(=O)O"
  Ki / nM: 10

---

Biological target: Histamine H3 receptor (Homo sapiens)
Sequence (Q9Y5N1 whole entry): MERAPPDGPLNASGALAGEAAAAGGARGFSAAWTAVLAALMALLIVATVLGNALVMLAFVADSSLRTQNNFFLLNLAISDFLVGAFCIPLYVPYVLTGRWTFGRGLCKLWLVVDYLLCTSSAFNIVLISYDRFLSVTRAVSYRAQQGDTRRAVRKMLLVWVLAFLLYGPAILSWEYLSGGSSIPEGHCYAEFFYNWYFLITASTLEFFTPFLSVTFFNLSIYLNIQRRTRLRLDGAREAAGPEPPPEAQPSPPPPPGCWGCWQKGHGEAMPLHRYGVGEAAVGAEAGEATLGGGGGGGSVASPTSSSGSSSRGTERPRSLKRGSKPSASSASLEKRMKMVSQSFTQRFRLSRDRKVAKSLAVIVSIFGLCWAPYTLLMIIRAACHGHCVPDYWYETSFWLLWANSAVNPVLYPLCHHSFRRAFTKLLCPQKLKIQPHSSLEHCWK

- MOLECULE: "CN(CCCCc1c[nH]cn1)CCC(c1ccc(Cl)cc1)c1ccccn1 (stereo unspecified)"
  Ki / nM: 15

---

Target: Peroxisome proliferator-activated receptor alpha (Homo sapiens, UniProt Q07869)
Sequence (Q07869 whole entry): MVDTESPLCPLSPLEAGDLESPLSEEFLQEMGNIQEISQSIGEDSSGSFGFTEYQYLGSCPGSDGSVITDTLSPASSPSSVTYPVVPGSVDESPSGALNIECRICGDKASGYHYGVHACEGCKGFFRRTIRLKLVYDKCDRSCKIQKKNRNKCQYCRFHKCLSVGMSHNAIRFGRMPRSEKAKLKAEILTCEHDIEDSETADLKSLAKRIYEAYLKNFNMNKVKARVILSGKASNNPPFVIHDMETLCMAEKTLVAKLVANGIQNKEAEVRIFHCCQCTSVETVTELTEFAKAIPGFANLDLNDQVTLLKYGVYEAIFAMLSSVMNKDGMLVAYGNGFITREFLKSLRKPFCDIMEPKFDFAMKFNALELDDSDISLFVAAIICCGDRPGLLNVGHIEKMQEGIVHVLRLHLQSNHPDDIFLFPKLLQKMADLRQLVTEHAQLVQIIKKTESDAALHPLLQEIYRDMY
Reported Kd values for a set of compounds

- COMPOUND: "CCOC(Cc1ccc(OCCN(C)C2=Nc3ccccc3Sc3ccccc32)cc1)C(=O)O (centres undefined)"
  ENDPOINT_UNIT: "µM"
  Kd: 7.5
- COMPOUND: "CCO[C@@H](Cc1ccc(OCC=C(c2ccccc2)c2ccccc2)cc1)C(=O)O"
  ENDPOINT_UNIT: "µM"
  Kd: 6.4
- COMPOUND: "CCO[C@@H](Cc1ccc(OCCn2c3ccccc3c3ccccc32)cc1)C(=O)O"
  ENDPOINT_UNIT: "µM"
  Kd: 0.36
- COMPOUND: "CCO[C@@H](Cc1ccc(OCC=C(c2ccc(-c3ccccc3)cc2)c2ccc(-c3ccccc3)cc2)cc1)C(=O)O"
  ENDPOINT_UNIT: "µM"
  Kd: 1.1
